- assayed.target: T1, His-tagged CEACAM1 (human, UniProt P13688 35-428)
- T1 construct: 45 kDa SPR analyte; also called CEACAM1-HIS; CEACAM1 analyte
- T1 sequence: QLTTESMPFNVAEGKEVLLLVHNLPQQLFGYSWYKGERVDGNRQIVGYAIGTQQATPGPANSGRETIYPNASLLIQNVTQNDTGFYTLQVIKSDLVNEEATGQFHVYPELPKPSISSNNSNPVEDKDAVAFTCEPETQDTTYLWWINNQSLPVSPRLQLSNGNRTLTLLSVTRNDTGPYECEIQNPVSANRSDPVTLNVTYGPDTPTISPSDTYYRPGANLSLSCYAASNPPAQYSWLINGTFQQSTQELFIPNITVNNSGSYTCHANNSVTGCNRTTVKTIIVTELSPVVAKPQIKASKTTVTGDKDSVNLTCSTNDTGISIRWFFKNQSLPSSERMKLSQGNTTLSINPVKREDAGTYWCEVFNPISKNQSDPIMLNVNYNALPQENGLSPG
- assay.info: SPR single-cycle, supernatant IgG captured
Give measured pKd for each item. Keep answers brief.
One number for each entry, as −log10 of the molar value.

8H3_9E5/Vκ8 S29A (antibody, IgG4, V domains shown, IgG4 (S241P), kappa) VH: EVQLLESGGGLVQPGGSLRLSCAASGFIFSSHGMSWVRQAPGKGLEWVATISSGGTYTYYPDSVKGRFTISRDNSKNTLYLQMNSLKAEDTAMYYCARHGFDYFPYWFAHWGQGTLVTVSS VL: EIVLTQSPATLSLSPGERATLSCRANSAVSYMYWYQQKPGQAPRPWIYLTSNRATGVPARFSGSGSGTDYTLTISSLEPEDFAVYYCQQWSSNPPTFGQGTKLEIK : 6.52
8H3_9C2/CP08F05 (antibody, IgG4, V domains shown, IgG4 (S241P), kappa; also called 8H3_9C2/CPO08_F05) VH: EVQLLESGGGLVQPGGSLRLSCAASEFTFSDHAMSWVRQAPGKGLEWVATISSGGTYTYYPDSVKGRFTISRDNSKNTLYLQMNSLKAEDTAMYYCARHGFDYFPYWFAHWGQGTLVTVSS VL: EIVLTQSPATLSLSPGERATLSCRANSAVSYMYWYQQKPGQAPRPWIYLTSNRATGVPARFSGSGSGTDYTLTISSLEPEDFAVYYCQQWTSNPPTFGQGTKLEIK : 7.03

Batch lookup, pKd per entry.
1. 9B3_9E5_8H3/CP08E05 (antibody, IgG4, V domains shown, IgG4 (S241P), kappa) VH: EVQLLESGGGLVQPGGSLRLSCAASGFTFNAHAISWVRQAPGKGLEWVATISSGGTYTYYPDSVKGRFTISRDNSKNTLYLQMNSLKAEDTAMYYCARHGFDYFPYWFAHWGQGTLVTVSS VL: EIVLTQSPATLSLSPGERATLSCRANSAVSYMYWYQQKPGQAPRPWIYLTSNRATGVPARFSGSGSGTDYTLTISSLEPEDFAVYYCQQWTTNPPTFGQGTKLEIK
2. 8H3_9B3/Vκ8 S29A (antibody, IgG4, V domains shown, IgG4 (S241P), kappa) VH: EVQLLESGGGLVQPGGSLRLSCAASGFTFNAHAISWVRQAPGKGLEWVATISSGGTYTYYPDSVKGRFTISRDNSKNTLYLQMNSLKAEDTAMYYCARHDFDYFPYWFAHWGQGTLVTVSS VL: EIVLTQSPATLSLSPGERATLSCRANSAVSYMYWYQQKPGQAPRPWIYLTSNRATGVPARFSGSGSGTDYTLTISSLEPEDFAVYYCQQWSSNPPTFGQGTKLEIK

1. 6.57
2. 7.11

Quick batch: pKd for everything below.
1. 9B3_9E5_8H3/CP08F05 (antibody, IgG4, V domains shown, IgG4 (S241P), kappa) VH: EVQLLESGGGLVQPGGSLRLSCAASGFTFNAHAISWVRQAPGKGLEWVATISSGGTYTYYPDSVKGRFTISRDNSKNTLYLQMNSLKAEDTAMYYCARHGFDYFPYWFAHWGQGTLVTVSS VL: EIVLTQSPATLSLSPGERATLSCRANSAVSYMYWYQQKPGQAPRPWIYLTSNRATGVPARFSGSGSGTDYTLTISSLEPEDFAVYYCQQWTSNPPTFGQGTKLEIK
2. 8H3_9C2 (CDR1)/CP08E05 (antibody, IgG4, V domains shown, IgG4 (S241P), kappa) VH: EVQLLESGGGLVQPGGSLRLSCAASEFTFSDHAMSWVRQAPGKGLEWVATISSGGTYTYYPDSVKGRFTISRDNSKNTLYLQMNSLKAEDTAMYYCARHDFDYFPYWFAHWGQGTLVTVSS VL: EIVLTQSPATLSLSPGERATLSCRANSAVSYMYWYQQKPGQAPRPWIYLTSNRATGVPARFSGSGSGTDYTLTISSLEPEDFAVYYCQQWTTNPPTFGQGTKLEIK
3. 8H3_9B3/CP08F05 (antibody, IgG4, V domains shown, IgG4 (S241P), kappa) VH: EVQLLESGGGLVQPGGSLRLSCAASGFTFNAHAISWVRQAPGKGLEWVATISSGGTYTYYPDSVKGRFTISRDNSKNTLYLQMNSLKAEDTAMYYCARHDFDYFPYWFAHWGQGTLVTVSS VL: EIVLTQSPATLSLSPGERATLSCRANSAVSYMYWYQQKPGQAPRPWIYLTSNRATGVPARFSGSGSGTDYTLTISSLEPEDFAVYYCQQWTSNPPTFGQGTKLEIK
4. 8H3_9E5/CP08E05 (antibody, IgG4, V domains shown, IgG4 (S241P), kappa) VH: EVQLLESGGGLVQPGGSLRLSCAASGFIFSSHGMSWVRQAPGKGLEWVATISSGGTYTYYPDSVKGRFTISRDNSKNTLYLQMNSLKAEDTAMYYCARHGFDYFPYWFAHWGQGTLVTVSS VL: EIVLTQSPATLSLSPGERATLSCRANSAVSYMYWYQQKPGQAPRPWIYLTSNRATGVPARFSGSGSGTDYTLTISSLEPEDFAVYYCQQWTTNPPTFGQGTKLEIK
5. 8H3_9C2/CP08E05 (antibody, IgG4, V domains shown, IgG4 (S241P), kappa) VH: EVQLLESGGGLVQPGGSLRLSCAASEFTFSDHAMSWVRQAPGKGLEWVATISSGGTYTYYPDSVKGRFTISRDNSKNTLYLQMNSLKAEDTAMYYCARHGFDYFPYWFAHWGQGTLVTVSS VL: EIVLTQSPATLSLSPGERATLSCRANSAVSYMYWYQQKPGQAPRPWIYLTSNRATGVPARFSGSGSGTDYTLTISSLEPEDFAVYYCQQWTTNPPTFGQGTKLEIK
6. 9B3_9E5_8H3/Vκ8 S29A (antibody, IgG4, V domains shown, IgG4 (S241P), kappa) VH: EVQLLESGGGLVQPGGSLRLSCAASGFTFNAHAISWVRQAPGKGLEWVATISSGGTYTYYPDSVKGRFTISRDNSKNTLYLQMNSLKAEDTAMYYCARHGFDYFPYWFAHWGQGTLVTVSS VL: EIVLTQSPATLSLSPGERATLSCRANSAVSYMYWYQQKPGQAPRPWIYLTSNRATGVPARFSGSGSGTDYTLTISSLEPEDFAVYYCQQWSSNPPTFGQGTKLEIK

6.68
6.60
7.15
6.49
6.96
6.68

Source of measurements: patent US20250074980A1
